The measurements presented in this section are drawn from the supplement of paper PMC10567573.

B1: BEX1 (parent)
chain: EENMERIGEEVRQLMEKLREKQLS

Variants of: B1
Method description: protein stability index of a GFP-peptide fusion (GPS, HEK-293T) (PSI 1-6); higher = more stable;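 further: lentivirally expressed fusions sorted by FACS into six bins by GFP to DsRed ratio, PSI derived from sequencing read proportions per bin multiplied by bin number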
Experimental setup: c terminus: a fixed tail appended
Overview of recorded protein stability index for various variants
Recorded metric: protein stability index

Variant notation: L18T
Recorded metric: protein stability index
Endpoint value: 5.53
--
Variant notation: R6I
Recorded metric: protein stability index
Endpoint value: 3.92
--
Variant notation: E9S
Recorded metric: protein stability index
Endpoint value: 4.51
--
Variant notation: E2W
Recorded metric: protein stability index
Endpoint value: 4.53
--
Variant notation: E16C
Recorded metric: protein stability index
Endpoint value: 3.87
--
Variant notation: M4K
Recorded metric: protein stability index
Endpoint value: 5.35
--
Variant notation: L14R
Recorded metric: protein stability index
Endpoint value: 5.59
--
Variant notation: L23F
Recorded metric: protein stability index
Endpoint value: 4.58
--
Variant notation: K21Q
Recorded metric: protein stability index
Endpoint value: 4.53
--
Variant notation: L18E
Recorded metric: protein stability index
Endpoint value: 5.35
--
Variant notation: M15L
Recorded metric: protein stability index
Endpoint value: 4.98
--
Variant notation: L14I
Recorded metric: protein stability index
Endpoint value: 4.06
--
Variant notation: E20F
Recorded metric: protein stability index
Endpoint value: 2.75
--
Variant notation: E10D
Recorded metric: protein stability index
Endpoint value: 4.76
--
Variant notation: V11N
Recorded metric: protein stability index
Endpoint value: 5.46
--
Variant notation: G8S
Recorded metric: protein stability index
Endpoint value: 4.47
--
Variant notation: V11G
Recorded metric: protein stability index
Endpoint value: 5.64
--
Variant notation: E9P
Recorded metric: protein stability index
Endpoint value: 4.98
--
Variant notation: E5L
Recorded metric: protein stability index
Endpoint value: 3.89
--
Variant notation: R19L
Recorded metric: protein stability index
Endpoint value: 2.82
--
Variant notation: K17Q
Recorded metric: protein stability index
Endpoint value: 4.38
--
Variant notation: E10G
Recorded metric: protein stability index
Endpoint value: 4.24
--
Variant notation: E2S
Recorded metric: protein stability index
Endpoint value: 4.23
--
Variant notation: R19E
Recorded metric: protein stability index
Endpoint value: 5.31
--
Variant notation: N3P
Recorded metric: protein stability index
Endpoint value: 4.71
--
Variant notation: E20R
Recorded metric: protein stability index
Endpoint value: 4.46
--
Variant notation: E1T
Recorded metric: protein stability index
Endpoint value: 4.56
--
Variant notation: L23W
Recorded metric: protein stability index
Endpoint value: 4.68
--
Variant notation: E10R
Recorded metric: protein stability index
Endpoint value: 2.79
--
Variant notation: R12L
Recorded metric: protein stability index
Endpoint value: 3.77
--
Variant notation: Q22N
Recorded metric: protein stability index
Endpoint value: 5.16
--
Variant notation: L23M
Recorded metric: protein stability index
Endpoint value: 4.1
--
Variant notation: E1Q
Recorded metric: protein stability index
Endpoint value: 4.41
--
Variant notation: L23H
Recorded metric: protein stability index
Endpoint value: 4.65
--
Variant notation: L23Q
Recorded metric: protein stability index
Endpoint value: 4.97
--
Variant notation: K17I
Recorded metric: protein stability index
Endpoint value: 3.76
--
Variant notation: E2H
Recorded metric: protein stability index
Endpoint value: 4.37
--
Variant notation: L18K
Recorded metric: protein stability index
Endpoint value: 5.26
--
Variant notation: E20S
Recorded metric: protein stability index
Endpoint value: 4.57
--
Variant notation: K21Y
Recorded metric: protein stability index
Endpoint value: 3.04
--
Variant notation: S24Q
Recorded metric: protein stability index
Endpoint value: 4.95
--
Variant notation: G8L
Recorded metric: protein stability index
Endpoint value: 3.33
--
Variant notation: N3G
Recorded metric: protein stability index
Endpoint value: 5.04
--
Variant notation: L23Y
Recorded metric: protein stability index
Endpoint value: 5.23
--
Variant notation: S24D
Recorded metric: protein stability index
Endpoint value: 4.91
--
Variant notation: V11C
Recorded metric: protein stability index
Endpoint value: 4.19
--
Variant notation: L14M
Recorded metric: protein stability index
Endpoint value: 3.38
--
Variant notation: R6H
Recorded metric: protein stability index
Endpoint value: 5.43
--
Variant notation: E5R
Recorded metric: protein stability index
Endpoint value: 4.33
--
Variant notation: G8Y
Recorded metric: protein stability index
Endpoint value: 4.5
--
Variant notation: I7Q
Recorded metric: protein stability index
Endpoint value: 5.33
--
Variant notation: E1K
Recorded metric: protein stability index
Endpoint value: 3.81
--
Variant notation: L18H
Recorded metric: protein stability index
Endpoint value: 5.04
--
Variant notation: R6W
Recorded metric: protein stability index
Endpoint value: 4.69
--
Variant notation: S24C
Recorded metric: protein stability index
Endpoint value: 4.8
--
Variant notation: K21D
Recorded metric: protein stability index
Endpoint value: 4.97
--
Variant notation: L23I
Recorded metric: protein stability index
Endpoint value: 5.26
--
Variant notation: M15F
Recorded metric: protein stability index
Endpoint value: 4.08
--
Variant notation: M4Q
Recorded metric: protein stability index
Endpoint value: 3.58
--
Variant notation: E5Q
Recorded metric: protein stability index
Endpoint value: 4.01
--
Variant notation: R12K
Recorded metric: protein stability index
Endpoint value: 4.78
--
Variant notation: S24V
Recorded metric: protein stability index
Endpoint value: 4.67
--
Variant notation: R12I
Recorded metric: protein stability index
Endpoint value: 4.22
--
Variant notation: K17D
Recorded metric: protein stability index
Endpoint value: 4.76
--
Variant notation: M4T
Recorded metric: protein stability index
Endpoint value: 5.03
--
Variant notation: R6N
Recorded metric: protein stability index
Endpoint value: 3.84
--
Variant notation: R12V
Recorded metric: protein stability index
Endpoint value: 5.27
--
Variant notation: K17W
Recorded metric: protein stability index
Endpoint value: 4.17
--
Variant notation: G8K
Recorded metric: protein stability index
Endpoint value: 4.32
--
Variant notation: E10W
Recorded metric: protein stability index
Endpoint value: 3.67
--
Variant notation: I7L
Recorded metric: protein stability index
Endpoint value: 4.74
--
Variant notation: K21A
Recorded metric: protein stability index
Endpoint value: 4.11
--
Variant notation: V11L
Recorded metric: protein stability index
Endpoint value: 4.68
--
Variant notation: M4P
Recorded metric: protein stability index
Endpoint value: 5.96
--
Variant notation: M4I
Recorded metric: protein stability index
Endpoint value: 4.28
--
Variant notation: Q13C
Recorded metric: protein stability index
Endpoint value: 4.53
--
Variant notation: Q13M
Recorded metric: protein stability index
Endpoint value: 4.5
--
Variant notation: I7F
Recorded metric: protein stability index
Endpoint value: 4.78
--
Variant notation: E9I
Recorded metric: protein stability index
Endpoint value: 4.39
--
Variant notation: E10H
Recorded metric: protein stability index
Endpoint value: 4
--
Variant notation: I7G
Recorded metric: protein stability index
Endpoint value: 4.97
--
Variant notation: E10S
Recorded metric: protein stability index
Endpoint value: 4.31
--
Variant notation: Q13I
Recorded metric: protein stability index
Endpoint value: 4.23
--
Variant notation: L23D
Recorded metric: protein stability index
Endpoint value: 5.21
--
Variant notation: V11H
Recorded metric: protein stability index
Endpoint value: 5.86
--
Variant notation: I7H
Recorded metric: protein stability index
Endpoint value: 5.86
--
Variant notation: R12S
Recorded metric: protein stability index
Endpoint value: 4.85
--
Variant notation: Q22S
Recorded metric: protein stability index
Endpoint value: 3.92
--
Variant notation: Q13T
Recorded metric: protein stability index
Endpoint value: 3.45
--
Variant notation: R19P
Recorded metric: protein stability index
Endpoint value: 5.54
--
Variant notation: E16H
Recorded metric: protein stability index
Endpoint value: 4.49
